Tested on: Mus musculus
Assay: Protective index, ratio of TD50 for Swiss mouse administered 120 mins before test to ED50 for Swiss mouse administered 120 mins before test
Assay type: functional
measurement.kind: Ratio TD50/ED50
Could you respond with only the numeric value?

Record excerpt, results attached:
1. CCCCn1c(-c2cccc(Cl)c2)n[nH]c1=S ... 1.4
2. CCCCCCCCCn1c(-c2cccc(Cl)c2)n[nH]c1=S ... 4.6
3. CCCCCCn1c(-c2cccc(Cl)c2)n[nH]c1=S ... 2.8
4. CCCCCCCn1c(-c2cccc(Cl)c2)n[nH]c1=S ... 3.3
5. CCn1c(S)nnc1-c1cccc(Cl)c1 ... 2.8

Next molecule, Ratio TD50/ED50 to be filled in.
*Q* Any idea what its Ratio TD50/ED50 is? The molecule is `CCCCCn1c(-c2cccc(Cl)c2)n[nH]c1=S`
*A* 2.7

* * *

Tested on: Mus musculus
Assay: Protective index, ratio of TD50 for Swiss mouse administered 30 mins before test to ED50 for Swiss mouse administered 30 mins before test
Format: functional
Given measured Ratio TD50/ED50, output fulfilled if it is greater than or equal to 6 and not fulfilled if not.

1. CCn1c(S)nnc1-c1cccc(Cl)c1 ... not fulfilled
2. CCCCCCCCCn1c(-c2cccc(Cl)c2)n[nH]c1=S ... not fulfilled
3. CCCCCCn1c(-c2cccc(Cl)c2)n[nH]c1=S ... fulfilled

*Q* Textbook exercise: given the entry `CCCCn1c(-c2cccc(Cl)c2)n[nH]c1=S` , state whether its Ratio TD50/ED50 is greater than or equal to 6.
*A* not fulfilled

*Q* Same question for `CCCCCn1c(-c2cccc(Cl)c2)n[nH]c1=S` please.
*A* not fulfilled

*Q* Input `CCCCCCCn1c(-c2cccc(Cl)c2)n[nH]c1=S`
*A* fulfilled

* * *

# TD50 at 2 h per entry
Assay: Neurotoxicity in ip dosed Swiss mouse assessed as delay in motor coordination administered 120 mins before test by chimney test
Type: toxicity, organism-based
Settings: in vivo
Give just the numeric value; mg/kg need not be written.

1. CCCCCCCCCn1c(-c2cccc(Cl)c2)n[nH]c1=S ... 659
2. CCCCCn1c(-c2cccc(Cl)c2)n[nH]c1=S ... 392
3. CCCC(CCC)C(=O)[O-].CCCC(CCC)C(=O)[O-].[Mg+2] [MAGNESIUM VALPROATE] ... 512

*Q* Given the entry `CCCCn1c(-c2cccc(Cl)c2)n[nH]c1=S` , report its measured TD50 at 2 h.
*A* 429

*Q* Request: `CCCCCCCn1c(-c2cccc(Cl)c2)n[nH]c1=S`
*A* 440

*Q* // same read-out, input: `CCn1c(S)nnc1-c1cccc(Cl)c1`
*A* 887

* * *

# Lookup of reported TD50 at 0.5 h keyed by entry
Assay: Neurotoxicity in ip dosed Swiss mouse assessed as delay in motor coordination administered 30 mins before test by chimney test
Assay type: toxicity, organism-based
Conditions: in vivo
// units = mg/kg; emit number, no label

*Q* Reported TD50 at 0.5 h for `CCCCCn1c(-c2cccc(Cl)c2)n[nH]c1=S` : what is it?
*A* 310

*Q* Also `CCCCCCCn1c(-c2cccc(Cl)c2)n[nH]c1=S` ?
*A* 423

*Q* How about this compound: CCCC(CCC)C(=O)[O-].CCCC(CCC)C(=O)[O-].[Mg+2] [MAGNESIUM VALPROATE]
*A* 373

Entry source: ChEMBL document CHEMBL2311432
